assay: Kinetic solubility of the compound by chemiluminescent nitrogen detection assay; format: physicochemical; conditions: read-out: Kinetic_solubility
endpoint.label: solubility kinetic

Record excerpt, results attached:
compound	solubility kinetic
COc1cccc2c1c(NS(=O)(=O)c1ccc(Cl)s1)nn2Cc1cccc(CNC(C)=O)n1	≥ 182 µg/mL
COc1cc(F)cc2c1c(NS(=O)(=O)c1ccc(Cl)s1)nn2Cc1cccc(CNC(=O)C(C)(C)O)c1	≥ 198 µg/mL

Next, consider the following compound.
Consider the compound "COc1cccc2c1c(NS(=O)(=O)c1ccc(Cl)s1)nn2Cc1cccc(CNC(=O)[C@@H]2CCCCN2)c1" and give its measured solubility kinetic.
≥ 220 µg/mL

====

experiment: in vivo; details: beagle, dog, iv, 0.5 mg/kg
endpoint.label: half-life
Answer format reminder: number followed by unit.

Record excerpt, results attached:
compound	readout.value
COc1cccc2c1c(NS(=O)(=O)c1ccc(Cl)s1)nn2Cc1cccc(CNC(=O)[C@@H]2COCCN2)c1	2.6 h
COc1cccc2c1c(NS(=O)(=O)c1ccc(Cl)s1)nn2Cc1cccc(CNC(=O)C2COCCN2C)c1 (single isomer, unassigned; isomer B)	2.6 h
COc1cccc2c1c(NS(=O)(=O)c1ccc(Cl)s1)nn2Cc1cccc(CNC(=O)C(C)(C)N)c1	2.4 h
CN[C@H](C)C(=O)NCc1cccc(Cn2nc(NS(=O)(=O)c3ccc(Cl)s3)c3c(OC)cccc32)c1	5.9 h

Next, consider the following compound.
Consider the compound "COc1cccc2c1c(NS(=O)(=O)c1ccc(Cl)s1)nn2Cc1cccc(CNC(=O)C(C)(C)O)c1" and give its measured half-life.
2.6 h

====

assay: Oral bioavailability in Beagle dog at 1 mg/kg; format: ADME, organism-based, Canis lupus familiaris; details: in vivo
endpoint.label: bioavailability (%)
Give a bare numeral; the unit % is implied.

Record excerpt, results attached:
COc1cccc2c1c(NS(=O)(=O)c1ccc(Cl)s1)nn2Cc1cccc(CNC(=O)[C@@H]2COCCN2)c1 39
CN[C@H](C)C(=O)NCc1cccc(Cn2nc(NS(=O)(=O)c3ccc(Cl)s3)c3c(OC)cccc32)c1 81
COc1cccc2c1c(NS(=O)(=O)c1ccc(Cl)s1)nn2Cc1cccc(CNC(C)=O)c1 49

Next, consider the following molecule.
Consider the molecule "COc1cccc2c1c(NS(=O)(=O)c1ccc(Cl)s1)nn2Cc1cccc(CNC(=O)C(C)(C)O)c1" and give its measured bioavailability.
97

====

experiment: Oral bioavailability in CD rat at 30 mg/kg administered as suspension; format: ADME, organism-based; settings: in vivo
endpoint.label: bioavailability (%)
Give a bare numeral; the unit % is implied.

Consider the compound "COc1cccc2c1c(NS(=O)(=O)c1ccc(Cl)s1)nn2Cc1cccc(CNC(=O)C(C)(C)O)c1" and give its measured bioavailability.
101

====

assay: Equilibrium solubility of the compound in simulated gastric fluid at pH 1.6 after 24 hrs by HPLC analysis; assay type: physicochemical
# maps each entry to its solubility thermodynamic at 24 h

COc1cccc2c1c(NS(=O)(=O)c1ccc(Cl)s1)nn2Cc1cccc(CNC(=O)C(C)(C)O)c1 1 µg/mL

Consider the compound "COc1cc(F)cc2c1c(NS(=O)(=O)c1ccc(Cl)s1)nn2Cc1cccc(CNC(=O)C(C)(C)O)c1" and give its measured solubility thermodynamic at 24 h.
1 µg/mL

====

biological target: C-X-C chemokine receptor type 2 (Homo sapiens); assay: Antagonist activity at CXCR2 receptor (unknown origin) by [35S]GTPgammaS binding assay
Sequence (P25025 whole entry): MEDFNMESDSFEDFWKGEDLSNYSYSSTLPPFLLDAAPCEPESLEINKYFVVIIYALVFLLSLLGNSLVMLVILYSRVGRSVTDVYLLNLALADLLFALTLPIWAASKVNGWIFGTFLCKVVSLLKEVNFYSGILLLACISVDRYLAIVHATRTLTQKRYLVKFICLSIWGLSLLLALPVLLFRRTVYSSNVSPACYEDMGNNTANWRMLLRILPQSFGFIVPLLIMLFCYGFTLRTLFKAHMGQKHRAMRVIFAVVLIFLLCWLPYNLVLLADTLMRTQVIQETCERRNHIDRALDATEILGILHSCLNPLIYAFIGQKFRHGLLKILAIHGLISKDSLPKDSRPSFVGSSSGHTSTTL
endpoint.label: IC50

Consider the molecule "COc1cccc2c1c(NS(=O)(=O)c1ccc(Cl)s1)nn2Cc1cccc(CNC(=O)C(C)(C)O)c1" and give its measured IC50.
> 10 µM

====

target: C-C chemokine receptor type 1 (Homo sapiens, UniProt P32246); assay: Antagonist activity at CCR1 receptor (unknown origin) by [35S]GTPgammaS binding assay
Sequence (P32246 whole entry): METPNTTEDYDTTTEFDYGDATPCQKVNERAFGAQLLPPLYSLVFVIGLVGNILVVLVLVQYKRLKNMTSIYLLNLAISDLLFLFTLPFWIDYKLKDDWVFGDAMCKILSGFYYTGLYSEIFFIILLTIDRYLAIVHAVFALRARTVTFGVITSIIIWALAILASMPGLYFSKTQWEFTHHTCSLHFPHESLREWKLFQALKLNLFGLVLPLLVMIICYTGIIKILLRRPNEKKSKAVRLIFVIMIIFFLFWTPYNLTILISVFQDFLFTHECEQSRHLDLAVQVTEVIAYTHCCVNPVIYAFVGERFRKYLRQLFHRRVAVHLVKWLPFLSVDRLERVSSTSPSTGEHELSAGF
pIC50: −log10 of the molar value.
endpoint.label: pIC50

Consider the compound "COc1cccc2c1c(NS(=O)(=O)c1ccc(Cl)s1)nn2Cc1cccc(CNC(=O)C(C)(C)O)c1" and give its measured pIC50.
< 5.00

====

# maps each entry to its IC50
target: C-C chemokine receptor type 4 (Homo sapiens); assay: Antagonist activity at human recombinant CCR4 receptor expressed in CHO cell membranes by [35S]GTPgammaS binding assay
Sequence (P51679 whole entry): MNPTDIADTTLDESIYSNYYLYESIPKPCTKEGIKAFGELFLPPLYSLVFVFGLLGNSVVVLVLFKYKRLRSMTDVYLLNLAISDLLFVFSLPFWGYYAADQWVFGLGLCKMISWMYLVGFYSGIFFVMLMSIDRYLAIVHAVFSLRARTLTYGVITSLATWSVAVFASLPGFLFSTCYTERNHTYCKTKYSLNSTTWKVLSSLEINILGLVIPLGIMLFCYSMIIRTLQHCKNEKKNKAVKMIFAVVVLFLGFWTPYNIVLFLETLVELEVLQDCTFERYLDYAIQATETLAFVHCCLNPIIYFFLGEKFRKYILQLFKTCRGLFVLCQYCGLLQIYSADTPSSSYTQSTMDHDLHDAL
Answer format reminder: number followed by unit.

Record excerpt, results attached:
molecule	IC50
COc1cccc2c1c(NS(=O)(=O)c1cccc(Cl)c1Cl)nn2Cc1cccc(CNC(=O)C(C)(C)O)c1	398 nM
COc1cccc2c1c(NS(=O)(=O)c1ccc(Cl)c(Cl)c1)nn2Cc1cccc(CNC(=O)C(C)(C)O)c1	398 nM
COc1cccc2c1c(NS(=O)(=O)c1ccc(Cl)s1)nn2Cc1cccc(CNC(=O)C2CCCO2)c1 (configuration not stated)	39.8 nM

Consider the molecule "COc1cccc2c1c(NS(=O)(=O)c1cccc(Cl)c1)nn2Cc1cccc(CNC(=O)C(C)(C)O)c1" and give its measured IC50.
50.1 nM

Further, for "COc1cccc2c1c(NS(=O)(=O)c1ccc(Cl)s1)nn2Cc1cccc(CNC(=O)C2COC2)c1" ?
20 nM

Further, for "CC(=O)NCc1cccc(Cn2nc(NS(=O)(=O)c3ccc(Cl)s3)c3c(C#N)cccc32)c1" ?
316 nM

====

experiment: Dissociation constant, pKa of the compound; assay type: physicochemical
# maps each entry to its pKa
Answer with a bare number; do not write a unit.

Record excerpt, results attached:
molecule	readout.value
CC(=O)NCc1cccc(Cn2nc(NS(=O)(=O)c3ccc(Cl)s3)c3ccccc32)c1	5.93
COc1cccc2c1c(NS(=O)(=O)c1ccc(Cl)s1)nn2Cc1cccc(CNC(C)=O)c1	6.6
COc1cccc2c1c(NS(=O)(=O)c1cccc(Cl)c1Cl)nn2Cc1cccc(CNC(=O)C(C)(C)O)c1	6.82
CC(=O)NCc1cccc(Cn2nc(NS(=O)(=O)c3ccc(Cl)s3)c3c(C(C)(C)O)cccc32)c1	5.46
COc1cccc2c1c(NS(=O)(=O)c1ccc(Cl)c(Cl)c1)nn2Cc1cccc(CNC(=O)C(C)(C)O)c1	6.76

Consider the molecule "CC(=O)NCc1cccc(Cn2nc(NS(=O)(=O)c3ccc(Cl)s3)c3c(Cl)cccc32)c1" and give its measured pKa.
6.03

Further, for "COc1cccc2c1c(NS(=O)(=O)c1cccc(Cl)c1)nn2Cc1cccc(CNC(=O)C(C)(C)O)c1" ?
7.06

Further, for "COc1cccc2c1c(NS(=O)(=O)c1ccc(Cl)s1)nn2Cc1cccc(CNC(=O)C(C)(C)O)c1" ?
6.54

Further, for CC(=O)NCc1cccc(Cn2nc(NS(=O)(=O)c3ccc(Cl)s3)c3c(C(C)O)cccc32)c1 (stereo not given) ?
5.62

Further, for "CC(=O)NCc1cccc(Cn2nc(NS(=O)(=O)c3ccc(Cl)s3)c3c(O)cccc32)c1" ?
6.12

====

assay: Volume of distribution at steady state in CD rat at 1 mg/kg, iv and 1 mg/kg, po; assay type: ADME, organism-based; conditions: in vivo, read-out: Vdss
endpoint.label: Vd (L/kg)
Give a bare numeral; the unit L/kg is implied.

compound	Vd (L/kg)
CC(=O)NCc1cccc(Cn2nc(NS(=O)(=O)c3ccc(Cl)s3)c3c(C(C)O)cccc32)c1 (stereo not drawn)	3.5

Consider the compound "COc1cccc2c1c(NS(=O)(=O)c1ccc(Cl)s1)nn2Cc1cccc(CNC(=O)[C@@H]2COCCN2)c1" and give its measured Vd.
0.78

Further, for "COc1cccc2c1c(NS(=O)(=O)c1ccc(Cl)s1)nn2Cc1cccc(CNC(=O)C(C)(C)N)c1" ?
0.84

Further, for "CN[C@H](C)C(=O)NCc1cccc(Cn2nc(NS(=O)(=O)c3ccc(Cl)s3)c3c(OC)cccc32)c1" ?
0.79

Further, for "COc1cc(F)cc2c1c(NS(=O)(=O)c1ccc(Cl)s1)nn2Cc1cccc(CNC(=O)C(C)(C)O)c1" ?
1.5

Further, for COc1cccc2c1c(NS(=O)(=O)c1ccc(Cl)s1)nn2Cc1cccc(CNC(=O)C2COCCN2C)c1 (single isomer, unassigned; isomer B) ?
1

Further, for "COc1cccc2c1c(NS(=O)(=O)c1ccc(Cl)s1)nn2Cc1cccc(CNC(=O)[C@@H]2CCCCN2)c1" ?
2.6

Further, for "CC(=O)NCc1cccc(Cn2nc(NS(=O)(=O)c3ccc(Cl)s3)c3c(O)cccc32)c1" ?
1.2

====

target: C-C chemokine receptor type 4 (Homo sapiens); assay: Antagonist activity at human recombinant CCR4 receptor expressed in CHO cell membranes by [35S]GTPgammaS binding assay
Lab note - cut at 100 nM for IC50: Condition met if strictly below, Condition not met if not.

Solved entries (count: 5):
compound	category.label
CC(=O)NCc1cccc(Cn2nc(NS(=O)(=O)c3ccc(Cl)s3)c3c(F)cccc32)c1	Condition met
COc1cccc2c1c(NS(=O)(=O)c1ccc(Cl)s1)nn2Cc1cccc(CNC(C)=O)n1	Condition not met
CC(=O)NCc1cccc(Cn2nc(NS(=O)(=O)c3ccc(Cl)s3)c3c(Cl)cccc32)c1	Condition met
COc1cc(F)cc2c1c(NS(=O)(=O)c1ccc(Cl)s1)nn2Cc1cccc(CNC(=O)C(C)(C)O)c1	Condition met
COc1cccc2c1c(NS(=O)(=O)c1ccc(Cl)s1)nn2Cc1cccc(CNC(=O)[C@@H]2CCCCN2)c1	Condition met

A record lists "COc1cccc2c1c(NS(=O)(=O)c1ccc(Cl)s1)nn2Cc1cccc(CNC2COC2)c1" . Is its IC50 below 100 nM?
Condition not met

Origin of values: ChEMBL document CHEMBL2321840
